- Test system: COLO 205
- procedure.details: NCI tumour cell line growth inhibition, 48 h
Activity calls are given as the source filed them. Rule as the data show it: active = GI50 up to about 1.1 µM and inactive = higher.
Use one of these outcomes when replying: active, inactive

Before answering, review these 3 worked examples.
{"compound": "N#CC(NNC(=O)c1c(Cl)c(Cl)c(Cl)c(Cl)c1-c1nc2cc(C(=O)c3ccccc3)ccc2[nH]1)c1ccccc1 (stereo not given)", "assayed.system": "COLO 205", "category.label": "inactive"}
{"compound": "CCOP(=O)(OCC)/C(C#N)=C/c1cccn1N(C)C", "assayed.system": "COLO 205", "category.label": "inactive"}
{"compound": "CC1OC(OC2CC(O)(C(=O)CO)Cc3c(O)c4c(c(O)c32)C(=O)c2ccccc2C4=O)CC(N)C1O (stereo not given)", "assayed.system": "COLO 205", "category.label": "active"}

**Q:** Dear all, I need the recorded test outcome for CCc1c2c(nc3ccc(O)cc13)-c1cc3c(c(=O)n1C2)COC(=O)[C@]3(O)CC [7-ETHYL-10-HYDROXYCAMPTOTHECIN] , thank you.
**A:** active

**Q:** Dear all, I need the recorded test outcome for COc1ccc(-c2c(C(C)=O)c(-c3ccccc3)n(C3OC(COC(C)=O)C(OC(C)=O)C(OC(C)=O)C3OC(C)=O)c(=S)c2C#N)cc1 (stereo not given) , thank you.
**A:** inactive

**Q:** Dear all, I need the recorded test outcome for CCNc1cc2c3c(c1)CCN3CCC2 , thank you.
**A:** inactive

**Q:** Dear all, I need the recorded test outcome for CC1(C)OCC2OC3([C@H]4OC(C)(C)O[C@@H]4CO)OC(C)(C)OC3C2O1 (stereo not given in full) , thank you.
**A:** inactive

**Q:** Dear all, I need the recorded test outcome for COc1cc(/C=C2/SC(c3ccccc3)N(c3cccc([N+](=O)[O-])c3)C2=O)cc(OC)c1OC (stereo not given) , thank you.
**A:** inactive

**Q:** Dear all, I need the recorded test outcome for O=c1c(C(c2cccnc2)c2c(O)oc3cc(O)ccc3c2=O)c(O)oc2cc(O)ccc12 , thank you.
**A:** inactive

**Q:** Dear all, I need the recorded test outcome for c1csc(-c2csc(-c3ccsc3)c2)c1 , thank you.
**A:** inactive

###

- Tested on: SK-MEL-28
- procedure.details: NCI tumour cell line growth inhibition, 48 h
Active and inactive are the calls of the source. Cut-off read from the data, not from the text of the source: active = GI50 up to about 1.1 µM and inactive = higher.
assay.readout: GI50

{"compound": "O=C(CC1OC(O)C(Cl)=C1Cl)c1cccnc1 (centres undefined)", "measurement": "> 42.7 µM (inactive)"}
{"compound": "COc1ccc2c(-c3csc(-c4c[nH]c5ccccc45)n3)c[nH]c2c1", "measurement": "14.6 µM (inactive)"}
{"compound": "O=c1cc(CBr)c2ccc(O)cc2o1", "measurement": "80.4 µM (inactive)"}
{"compound": "NNC(=O)CNC(=O)CSc1nnc(COc2ccc(Cl)cc2)n1-c1ccccc1", "measurement": "> 100 µM (inactive)"}
{"compound": "CCC1C(=O)OCc2c1cc1n(c2=O)Cc2ccccc2-1 (centres undefined)", "measurement": "> 100 µM (inactive)"}
{"compound": "N#Cc1c2c(c(-c3cccs3)n(C3OC(CO)C(O)C(O)C3O)c1=S)CCc1ccccc1-2 (centres undefined)", "measurement": "> 100 µM (inactive)"}
{"compound": "C[C@@H]1CC[C@@H]2[C@@H](C1)O[C@@H]([C@@H](C)OCc1ccccc1)SC2(C)C", "measurement": "24.7 µM (inactive)"}
{"compound": "O=Cn1c2ccccc2c2ccccc21", "measurement": "> 100 µM (inactive)"}

Next:
Measured GI50 of CN(C)CCCn1cnc2cc(Cl)c(Cl)cc21 : 17.9 µM (inactive)
